# assayed_target: BACE1 in primary mouse cortical neurons (mouse, UniProt P56818 46-501)
# Sequence (P56818 46-501): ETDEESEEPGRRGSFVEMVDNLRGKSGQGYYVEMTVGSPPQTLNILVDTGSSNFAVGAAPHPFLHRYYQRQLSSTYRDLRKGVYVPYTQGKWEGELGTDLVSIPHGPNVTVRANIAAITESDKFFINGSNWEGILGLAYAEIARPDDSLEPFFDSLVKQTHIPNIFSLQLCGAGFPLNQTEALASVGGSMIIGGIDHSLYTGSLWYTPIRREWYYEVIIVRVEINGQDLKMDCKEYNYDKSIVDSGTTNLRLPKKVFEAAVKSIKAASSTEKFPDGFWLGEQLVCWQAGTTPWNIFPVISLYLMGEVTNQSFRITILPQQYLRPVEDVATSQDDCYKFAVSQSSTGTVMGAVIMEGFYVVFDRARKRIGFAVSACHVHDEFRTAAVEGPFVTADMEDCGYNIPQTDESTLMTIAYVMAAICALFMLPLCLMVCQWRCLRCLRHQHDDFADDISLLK
# experimental_protocol: cell-based or functional assay
Answer each item with its documented maximal % inhibition of Abeta x-40.
Numbers only, in %.

binder="anti-BACE1 antibody 6266 (antibody, V domains shown, Fully human antibody) VH: EVQLVQSGAEVKKPGSSVKVSCKASGGTLSGYGVSWVRQAPGQGLEWMGNIIPGFGTANYAQKFQGRVTITADESTSTAYMELSSLRSEDTAVYYCARSGGTKYGMLDVWGQGTMVTVSS VL: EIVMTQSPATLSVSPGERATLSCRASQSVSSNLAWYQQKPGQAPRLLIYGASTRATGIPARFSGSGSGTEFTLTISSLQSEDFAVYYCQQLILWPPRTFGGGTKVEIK" value_units=% data_value=87

Next, consider the following binder.
[Q] // lookup maximal % inhibition of Abeta x-40 for 5982 (antibody, V domains shown, anti-BACE1 IgG) VH: QLQLQESGPGLVKPSETLSLTCTVSGGSISSSSYYWGWIRQPPGKGLEWIGNIYYSGSTYYNPSLKSRVTISVDTSKNQFSLKLSSVTAADTAVYYCARLGHGYSYFDLWGRGTLVTVSS VL: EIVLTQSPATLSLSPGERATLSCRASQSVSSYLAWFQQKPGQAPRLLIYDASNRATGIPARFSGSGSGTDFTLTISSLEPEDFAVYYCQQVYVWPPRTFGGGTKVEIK
[A] 71
